Taken from ChEMBL document CHEMBL3885861.

- Species on record: Rattus norvegicus
- assay method text: Open TG-GATES - Regimen: Single
- Type: toxicity, organism-based, Sprague-Dawley
- Design: regimen Single, gender Male, age 6 weeks
- test conditions: in vivo, po, 0 mg/kg, 9 h, tissue Plasma, route gavage, dose level Control
Would you mind telling me the reported AST of each entry?
// note: answer is a bare numeric in IU/L

Given the entry `CCN(CC)N=O` , report its measured AST.
69

Given the entry CC(C)Cc1ccc(C(C)C(=O)O)cc1 (configuration not stated) , report its measured AST.
73.2

Given the entry `CC(=O)Nc1ccc2c(c1)Cc1ccccc1-2` , report its measured AST.
67.8

Given the entry `CC[C@@H](CO)NCCN[C@@H](CC)CO` , report its measured AST.
69.8

Given the entry CC(CCc1ccccc1)NCC(O)c1ccc(O)c(C(N)=O)c1 (configuration not stated) , report its measured AST.
72.8

Given the entry `O=C(O)COc1nn(Cc2ccccc2)c2ccccc12` , report its measured AST.
64.4

Given the entry CC(=O)N1CCN(c2ccc(OCC3COC(Cn4ccnc4)(c4ccc(Cl)cc4Cl)O3)cc2)CC1 (configuration not stated) , report its measured AST.
75

----------
Would you mind telling me the reported LDH of each entry?
- Species: Rattus norvegicus
- assay method text: Open TG-GATES - Regimen: Single
- Type: toxicity, organism-based, Sprague-Dawley
- Design: regimen Single, gender Male, age 6 weeks
- test conditions: in vivo, po, 0 mg/kg, 3 h, tissue Plasma, route gavage, dose level Control
// note: answer is a bare numeric in IU/L

Given the entry CCN(CC)N=O [N-NITROSODIETHYLAMINE] , report its measured LDH.
169.8

Given the entry CC(CCc1ccccc1)NCC(O)c1ccc(O)c(C(N)=O)c1 (configuration not stated) [LABETALOL] , report its measured LDH.
70.6

Given the entry CC[C@@H](CO)NCCN[C@@H](CC)CO [ETHAMBUTOL] , report its measured LDH.
171.6

Given the entry CC(=O)Nc1ccc2c(c1)Cc1ccccc1-2 [2-ACETYLAMINOFLUORENE] , report its measured LDH.
161.8

Given the entry O=C(O)COc1nn(Cc2ccccc2)c2ccccc12 [BENDAZAC] , report its measured LDH.
89.4

Given the entry CC(=O)N1CCN(c2ccc(OCC3COC(Cn4ccnc4)(c4ccc(Cl)cc4Cl)O3)cc2)CC1 (configuration not stated) [KETOCONAZOLE] , report its measured LDH.
167.6

Given the entry CC(C)Cc1ccc(C(C)C(=O)O)cc1 (configuration not stated) [IBUPROFEN] , report its measured LDH.
274

----------
- Organism: Rattus norvegicus
- assay method text: Open TG-GATES - Regimen: Daily Repeat
- Format: toxicity, organism-based, Sprague-Dawley
- Design: regimen Daily Repeat, gender Male, age 6 weeks
- test conditions: in vivo, po, 0 mg/kg, […], tissue Plasma, route gavage, dose level Control, time 28 day
measured parameter: IP (mg/dL)
// note: answer is a bare numeric in mg/dL

Given the entry CC(N)=O [ACETAMIDE] , report its measured IP.
6.3

Given the entry CC(=O)N1CCN(c2ccc(OCC3COC(Cn4ccnc4)(c4ccc(Cl)cc4Cl)O3)cc2)CC1 (stereo not drawn) , report its measured IP.
5.5

Given the entry `CC(=O)Nc1ccc2c(c1)Cc1ccccc1-2` , report its measured IP.
7.2

Given the entry `O=C(O)COc1nn(Cc2ccccc2)c2ccccc12` , report its measured IP.
6.4

Given the entry `CCN(CC)N=O` , report its measured IP.
6.9

Given the entry CC(CCc1ccccc1)NCC(O)c1ccc(O)c(C(N)=O)c1 (stereo not drawn) , report its measured IP.
6.5

Given the entry `CC[C@@H](CO)NCCN[C@@H](CC)CO` , report its measured IP.
6.8

Given the entry CC(C)Cc1ccc(C(C)C(=O)O)cc1 (stereo not drawn) , report its measured IP.
6.3

----------
- Organism: Rattus norvegicus
- assay method text: Open TG-GATES - Regimen: Daily Repeat
- Assay type: toxicity, organism-based, Sprague-Dawley
- Parameters: regimen Daily Repeat, gender Male, age 6 weeks
- test conditions: in vivo, po, 0 mg/kg, 72 h, tissue Blood, route gavage, dose level Control, time 3 day
measured parameter: Ht (%)
// note: answer is a bare numeric in %

Given the entry CC(C)Cc1ccc(C(C)C(=O)O)cc1 (stereo not given) , report its measured Ht.
38.4

Given the entry `CC[C@@H](CO)NCCN[C@@H](CC)CO` , report its measured Ht.
38.8

Given the entry CC(N)=O [ACETAMIDE] , report its measured Ht.
40.5

Given the entry `CC(=O)Nc1ccc2c(c1)Cc1ccccc1-2` , report its measured Ht.
40.4

Given the entry CC(=O)N1CCN(c2ccc(OCC3COC(Cn4ccnc4)(c4ccc(Cl)cc4Cl)O3)cc2)CC1 (stereo not given) , report its measured Ht.
38.3

----------
- Species on record: Rattus norvegicus
- assay method text: Open TG-GATES - Regimen: Single
- Assay type: toxicity, organism-based, Sprague-Dawley
- Set-up: regimen Single, gender Male, age 6 weeks
- test conditions: in vivo, po, 0 mg/kg, 3 h, tissue Blood, route gavage, dose level Control
measured parameter: Eos (%)
// note: answer is a bare numeric in %

Given the entry `CC[C@@H](CO)NCCN[C@@H](CC)CO` , report its measured Eos.
0.8

Given the entry CC(C)Cc1ccc(C(C)C(=O)O)cc1 (configuration not stated) , report its measured Eos.
1

Given the entry CC(=O)N1CCN(c2ccc(OCC3COC(Cn4ccnc4)(c4ccc(Cl)cc4Cl)O3)cc2)CC1 (configuration not stated) , report its measured Eos.
0.8

Given the entry `CC(=O)Nc1ccc2c(c1)Cc1ccccc1-2` , report its measured Eos.
1

Given the entry `O=C(O)COc1nn(Cc2ccccc2)c2ccccc12` , report its measured Eos.
0.8

Given the entry CC(CCc1ccccc1)NCC(O)c1ccc(O)c(C(N)=O)c1 (configuration not stated) , report its measured Eos.
1

Given the entry `CCN(CC)N=O` , report its measured Eos.
1

----------
- Organism: Rattus norvegicus
- assay method text: Open TG-GATES - Regimen: Single
- Type: toxicity, organism-based, Sprague-Dawley
- Parameters: regimen Single, gender Male, age 6 weeks
- test conditions: in vivo, po, 0 mg/kg, 3 h, tissue Plasma, route gavage, dose level Control
Would you mind telling me the reported TG of each entry?
// note: answer is a bare numeric in mg/dL

Given the entry `CC(=O)Nc1ccc2c(c1)Cc1ccccc1-2` , report its measured TG.
61.6

Given the entry `CCN(CC)N=O` , report its measured TG.
42.4

Given the entry CC(CCc1ccccc1)NCC(O)c1ccc(O)c(C(N)=O)c1 (configuration not stated) , report its measured TG.
68.4

Given the entry CC(C)Cc1ccc(C(C)C(=O)O)cc1 (configuration not stated) , report its measured TG.
51

Given the entry `CC[C@@H](CO)NCCN[C@@H](CC)CO` , report its measured TG.
63.8

Given the entry `O=C(O)COc1nn(Cc2ccccc2)c2ccccc12` , report its measured TG.
67

Given the entry CC(=O)N1CCN(c2ccc(OCC3COC(Cn4ccnc4)(c4ccc(Cl)cc4Cl)O3)cc2)CC1 (configuration not stated) , report its measured TG.
63.2

----------
Would you mind telling me the reported Plat of each entry?
- Species: Rattus norvegicus
- assay method text: Open TG-GATES - Regimen: Single
- Assay type: toxicity, organism-based, Sprague-Dawley
- Parameters: regimen Single, gender Male, age 6 weeks
- test conditions: in vivo, po, 0 mg/kg, 6 h, tissue Blood, route gavage, dose level Control
// note: answer is a bare numeric in x10_4/uL

Given the entry CC[C@@H](CO)NCCN[C@@H](CC)CO [ETHAMBUTOL] , report its measured Plat.
122.5

Given the entry CC(C)Cc1ccc(C(C)C(=O)O)cc1 (configuration not stated) [IBUPROFEN] , report its measured Plat.
118.6

Given the entry CC(CCc1ccccc1)NCC(O)c1ccc(O)c(C(N)=O)c1 (configuration not stated) [LABETALOL] , report its measured Plat.
104.3

Given the entry CC(=O)Nc1ccc2c(c1)Cc1ccccc1-2 [2-ACETYLAMINOFLUORENE] , report its measured Plat.
131.8

Given the entry CC(=O)N1CCN(c2ccc(OCC3COC(Cn4ccnc4)(c4ccc(Cl)cc4Cl)O3)cc2)CC1 (configuration not stated) [KETOCONAZOLE] , report its measured Plat.
122.1

Given the entry O=C(O)COc1nn(Cc2ccccc2)c2ccccc12 [BENDAZAC] , report its measured Plat.
123

Given the entry CCN(CC)N=O [N-NITROSODIETHYLAMINE] , report its measured Plat.
130.4

----------
- Organism: Rattus norvegicus
- assay method text: Open TG-GATES - Regimen: Daily Repeat
- Assay type: toxicity, organism-based, Sprague-Dawley
- Set-up: regimen Daily Repeat, gender Male, age 6 weeks
- test conditions: in vivo, po, 0 mg/kg, 72 h, tissue Blood, route gavage, dose level Control, time 3 day
measured parameter: MCHC (%)
// note: answer is a bare numeric in %

Given the entry `CC[C@@H](CO)NCCN[C@@H](CC)CO` , report its measured MCHC.
34.9

Given the entry `CCN(CC)N=O` , report its measured MCHC.
34.8

Given the entry CC(=O)N1CCN(c2ccc(OCC3COC(Cn4ccnc4)(c4ccc(Cl)cc4Cl)O3)cc2)CC1 (stereo not drawn) , report its measured MCHC.
34.3

Given the entry CC(C)Cc1ccc(C(C)C(=O)O)cc1 (stereo not drawn) , report its measured MCHC.
34.5

Given the entry CC(CCc1ccccc1)NCC(O)c1ccc(O)c(C(N)=O)c1 (stereo not drawn) , report its measured MCHC.
34.3

Given the entry CC(N)=O [ACETAMIDE] , report its measured MCHC.
32.4

Given the entry `CC(=O)Nc1ccc2c(c1)Cc1ccccc1-2` , report its measured MCHC.
34.6

Given the entry `O=C(O)COc1nn(Cc2ccccc2)c2ccccc12` , report its measured MCHC.
33.3
